Measurement Target: FLT3-ITD(h) (Homo sapiens, UniProt P36888)
Protocol: Kinase inhibitory activity test (per WO2011/147066)
pIC50: −log10 of the molar value.
Value Kind: pIC50

[
  {
    "Structure Smiles String": "CC(C)n1c(Nc2cccnc2)nc2cnc(Nc3ccc(N4CCN(C)CC4)cc3)nc21",
    "Test Value": "8.00 to 8.52"
  }
]

----------
Protocol: Solubility test (UV spectrophotometer, saturated solutions shaken 24 hours)
Type: physicochemical
Test Context: 25° C., pH=4.5 phosphate buffer solution
# note: boundary value 10 mg/mL maps to Not fulfilled; Solubility, Water medium pH = 4.5 below it maps to Fulfilled

[
  {
    "Molecule": "CC(C)n1c(Nc2cccnc2)nc2cnc(Nc3ccc(N4CCN(C)CC4)cc3)nc21 [Example 4]",
    "Class Assignment": "Not fulfilled"
  },
  {
    "Molecule": "CC(C)n1c(Nc2cccnc2)nc2cnc(Nc3ccc(N4CCN(C)CC4)cc3)nc21 [Example 17]",
    "Class Assignment": "Not fulfilled"
  },
  {
    "Molecule": "CC(C)n1c(Nc2cccnc2)nc2cnc(Nc3ccc(N4CCN(C)CC4)cc3)nc21 [Example 14]",
    "Class Assignment": "Fulfilled"
  },
  {
    "Molecule": "CC(C)n1c(Nc2cccnc2)nc2cnc(Nc3ccc(N4CCN(C)CC4)cc3)nc21 [Example 9]",
    "Class Assignment": "Not fulfilled"
  },
  {
    "Molecule": "CC(C)n1c(Nc2cccnc2)nc2cnc(Nc3ccc(N4CCN(C)CC4)cc3)nc21 [Example 7]",
    "Class Assignment": "Fulfilled"
  },
  {
    "Molecule": "CC(C)n1c(Nc2cccnc2)nc2cnc(Nc3ccc(N4CCN(C)CC4)cc3)nc21 [Example 15]",
    "Class Assignment": "Not fulfilled"
  },
  {
    "Molecule": "CC(C)n1c(Nc2cccnc2)nc2cnc(Nc3ccc(N4CCN(C)CC4)cc3)nc21 [Example 6]",
    "Class Assignment": "Not fulfilled"
  },
  {
    "Molecule": "CC(C)n1c(Nc2cccnc2)nc2cnc(Nc3ccc(N4CCN(C)CC4)cc3)nc21 [Example 8]",
    "Class Assignment": "Not fulfilled"
  },
  {
    "Molecule": "CC(C)n1c(Nc2cccnc2)nc2cnc(Nc3ccc(N4CCN(C)CC4)cc3)nc21 [Example 3]",
    "Class Assignment": "Not fulfilled"
  },
  {
    "Molecule": "CC(C)n1c(Nc2cccnc2)nc2cnc(Nc3ccc(N4CCN(C)CC4)cc3)nc21 [Example 10]",
    "Class Assignment": "Not fulfilled"
  },
  {
    "Molecule": "CC(C)n1c(Nc2cccnc2)nc2cnc(Nc3ccc(N4CCN(C)CC4)cc3)nc21 [Example 5]",
    "Class Assignment": "Not fulfilled"
  },
  {
    "Molecule": "CC(C)n1c(Nc2cccnc2)nc2cnc(Nc3ccc(N4CCN(C)CC4)cc3)nc21 [Example 12]",
    "Class Assignment": "Fulfilled"
  },
  {
    "Molecule": "CC(C)n1c(Nc2cccnc2)nc2cnc(Nc3ccc(N4CCN(C)CC4)cc3)nc21 [The compound represented by Formula 1]",
    "Class Assignment": "Fulfilled"
  },
  {
    "Molecule": "CC(C)n1c(Nc2cccnc2)nc2cnc(Nc3ccc(N4CCN(C)CC4)cc3)nc21 [Example 16]",
    "Class Assignment": "Not fulfilled"
  },
  {
    "Molecule": "CC(C)n1c(Nc2cccnc2)nc2cnc(Nc3ccc(N4CCN(C)CC4)cc3)nc21 [Example 11]",
    "Class Assignment": "Not fulfilled"
  },
  {
    "Molecule": "CC(C)n1c(Nc2cccnc2)nc2cnc(Nc3ccc(N4CCN(C)CC4)cc3)nc21 [Example 13]",
    "Class Assignment": "Fulfilled"
  },
  {
    "Molecule": "CC(C)n1c(Nc2cccnc2)nc2cnc(Nc3ccc(N4CCN(C)CC4)cc3)nc21 [Example 1]",
    "Class Assignment": "Not fulfilled"
  }
]

----------
Protocol: Hygroscopicity test
Assay type: physicochemical
Test Context: 25±1° C., relative humidity 80%±2% (DVS, 80% RH)
Decide by Weight gain due to hygroscopicity: equal to or exceeding 1% means Fulfilled, less means Not fulfilled.

[
  {
    "Compound": "CC(C)n1c(Nc2cccnc2)nc2cnc(Nc3ccc(N4CCN(C)CC4)cc3)nc21 [Example 7]",
    "Class Assignment": "Fulfilled"
  },
  {
    "Compound": "CC(C)n1c(Nc2cccnc2)nc2cnc(Nc3ccc(N4CCN(C)CC4)cc3)nc21 [Example 9]",
    "Class Assignment": "Fulfilled"
  },
  {
    "Compound": "CC(C)n1c(Nc2cccnc2)nc2cnc(Nc3ccc(N4CCN(C)CC4)cc3)nc21 [Example 3]",
    "Class Assignment": "Fulfilled"
  },
  {
    "Compound": "CC(C)n1c(Nc2cccnc2)nc2cnc(Nc3ccc(N4CCN(C)CC4)cc3)nc21 [Example 1]",
    "Class Assignment": "Not fulfilled"
  },
  {
    "Compound": "CC(C)n1c(Nc2cccnc2)nc2cnc(Nc3ccc(N4CCN(C)CC4)cc3)nc21 [Example 12]",
    "Class Assignment": "Not fulfilled"
  },
  {
    "Compound": "CC(C)n1c(Nc2cccnc2)nc2cnc(Nc3ccc(N4CCN(C)CC4)cc3)nc21 [Example 15]",
    "Class Assignment": "Fulfilled"
  },
  {
    "Compound": "CC(C)n1c(Nc2cccnc2)nc2cnc(Nc3ccc(N4CCN(C)CC4)cc3)nc21 [Example 10]",
    "Class Assignment": "Not fulfilled"
  },
  {
    "Compound": "CC(C)n1c(Nc2cccnc2)nc2cnc(Nc3ccc(N4CCN(C)CC4)cc3)nc21 [Example 5]",
    "Class Assignment": "Fulfilled"
  },
  {
    "Compound": "CC(C)n1c(Nc2cccnc2)nc2cnc(Nc3ccc(N4CCN(C)CC4)cc3)nc21 [Example 8]",
    "Class Assignment": "Fulfilled"
  },
  {
    "Compound": "CC(C)n1c(Nc2cccnc2)nc2cnc(Nc3ccc(N4CCN(C)CC4)cc3)nc21 [Example 11]",
    "Class Assignment": "Not fulfilled"
  },
  {
    "Compound": "CC(C)n1c(Nc2cccnc2)nc2cnc(Nc3ccc(N4CCN(C)CC4)cc3)nc21 [Example 4]",
    "Class Assignment": "Fulfilled"
  },
  {
    "Compound": "CC(C)n1c(Nc2cccnc2)nc2cnc(Nc3ccc(N4CCN(C)CC4)cc3)nc21 [Example 17]",
    "Class Assignment": "Fulfilled"
  },
  {
    "Compound": "CC(C)n1c(Nc2cccnc2)nc2cnc(Nc3ccc(N4CCN(C)CC4)cc3)nc21 [Example 14]",
    "Class Assignment": "Fulfilled"
  },
  {
    "Compound": "CC(C)n1c(Nc2cccnc2)nc2cnc(Nc3ccc(N4CCN(C)CC4)cc3)nc21 [The compound represented by Formula 1]",
    "Class Assignment": "Not fulfilled"
  },
  {
    "Compound": "CC(C)n1c(Nc2cccnc2)nc2cnc(Nc3ccc(N4CCN(C)CC4)cc3)nc21 [Example 13]",
    "Class Assignment": "Not fulfilled"
  },
  {
    "Compound": "CC(C)n1c(Nc2cccnc2)nc2cnc(Nc3ccc(N4CCN(C)CC4)cc3)nc21 [Example 16]",
    "Class Assignment": "Fulfilled"
  }
]

----------
Protocol: Accelerated stability test
Type: physicochemical
Test Context: Placed at 40 ± 2° C. under 75% ± 5% RH in an open environment for 10 days
Value Kind: Appearance

[
  {
    "Compound": "CC(C)n1c(Nc2cccnc2)nc2cnc(Nc3ccc(N4CCN(C)CC4)cc3)nc21 [Example 7]",
    "Value Kind": "Appearance",
    "Test Value": "Yellow solid"
  },
  {
    "Compound": "CC(C)n1c(Nc2cccnc2)nc2cnc(Nc3ccc(N4CCN(C)CC4)cc3)nc21 [Example 5]",
    "Value Kind": "Appearance",
    "Test Value": "Liquid"
  },
  {
    "Compound": "CC(C)n1c(Nc2cccnc2)nc2cnc(Nc3ccc(N4CCN(C)CC4)cc3)nc21 [Example 10]",
    "Value Kind": "Appearance",
    "Test Value": "Yellow solid"
  },
  {
    "Compound": "CC(C)n1c(Nc2cccnc2)nc2cnc(Nc3ccc(N4CCN(C)CC4)cc3)nc21 [Example 11]",
    "Value Kind": "Appearance",
    "Test Value": "Yellow solid"
  },
  {
    "Compound": "CC(C)n1c(Nc2cccnc2)nc2cnc(Nc3ccc(N4CCN(C)CC4)cc3)nc21 [Example 14]",
    "Value Kind": "Appearance",
    "Test Value": "Off-white solid"
  },
  {
    "Compound": "CC(C)n1c(Nc2cccnc2)nc2cnc(Nc3ccc(N4CCN(C)CC4)cc3)nc21 [Example 6]",
    "Value Kind": "Appearance",
    "Test Value": "Yellow solid"
  },
  {
    "Compound": "CC(C)n1c(Nc2cccnc2)nc2cnc(Nc3ccc(N4CCN(C)CC4)cc3)nc21 [Example 15]",
    "Value Kind": "Appearance",
    "Test Value": "Off-white solid"
  },
  {
    "Compound": "CC(C)n1c(Nc2cccnc2)nc2cnc(Nc3ccc(N4CCN(C)CC4)cc3)nc21 [Example 4]",
    "Value Kind": "Appearance",
    "Test Value": "Liquid"
  }
]
